- Test system: MDCK cells
- test.details: Cytotoxicity assay
- Type: cell-based
- assay.context: 48 h, MTT
Each entry below carries its reported CC50.
Record the value in µg/mL, omitting the unit from your answer.

Worked examples follow.
1) CCCCCCCCCCCC[N+](C)(C)CCCNCCC[N+](C)(C)CCCCCCCCCCCC.[Br-].[Br-] ... 1.9
2) CCCCCCCCCCCC[N+](C)(C)CCOCC[N+](C)(C)CCCCCCCCCCCC.[Br-].[Br-] ... 4.9
3) CCCCCCCCCCCC[N+](C)(C)CCCCCC[N+](C)(C)CCCCCCCCCCCC.[Br-].[Br-] ... 3.4

Please look at the following molecule next.
Q: Bench note: what CC50 did CCCCCCCCCCCC[N+](C)(C)CCCCCCCCCC[N+](C)(C)CCCCCCCCCCCC.[Br-].[Br-] show?
A: 4.0
